# System: ducksalad (Heteranthera limosa)
# Assay Method Text: Test B flooded paddy test plant response
# Assay type: in vivo
# Condition Set: Flood (flooded paddy test), 125 g ai/ha; scale 0 to 100, 0 no effect, 100 complete control
Lab note: anything with Plant response rating, Ducksalad at or over 40 counts as 1 (yes); the rest go in 0 (no).

Is the recorded value of Plant response rating, Ducksalad equal to or greater than 40 for this compound? CCn1ncc(O)c(-c2cn(-c3ccc(Cl)cc3)nc2C)c1=O [Compound 65]
0 (no)

Is the recorded value of Plant response rating, Ducksalad equal to or greater than 40 for this compound? Cn1ncc(O)c(-n2nc(-c3ccc(Cl)cc3)cc2C2CC2)c1=O [Compound 45]
0 (no)

Is the recorded value of Plant response rating, Ducksalad equal to or greater than 40 for this compound? Cc1cc(-c2ccc(Cl)cc2)nn1-c1c(OS(=O)(=O)c2ccccc2)cnn(C)c1=O [Compound 35]
0 (no)

Is the recorded value of Plant response rating, Ducksalad equal to or greater than 40 for this compound? Cc1cc(-c2ccc(Cl)cc2)nn1-c1c(OC(=O)c2ccccc2Cl)cnn(C)c1=O [Compound 38]
0 (no)

Is the recorded value of Plant response rating, Ducksalad equal to or greater than 40 for this compound? Cc1cc(-c2ccc(C(F)(F)F)c(F)c2)nn1-c1c(O)c(C(F)(F)F)nn(C)c1=O [Compound 44]
1 (yes)

Is the recorded value of Plant response rating, Ducksalad equal to or greater than 40 for this compound? Cc1cc(-c2ccc(Br)cc2)nn1-c1c(OC(=O)C2CC2)cnn(C)c1=O [Compound 5]
1 (yes)

Is the recorded value of Plant response rating, Ducksalad equal to or greater than 40 for this compound? CCc1c(C)c(-c2ccc(Br)cc2)nn1-c1c(O)cnn(C)c1=O [Compound 83]
0 (no)

Is the recorded value of Plant response rating, Ducksalad equal to or greater than 40 for this compound? Cc1cc(-c2ccc(C(F)(F)F)cc2)nn1-c1c(O)c(C(C)C)nn(C)c1=O [Compound 27]
1 (yes)

Is the recorded value of Plant response rating, Ducksalad equal to or greater than 40 for this compound? CCc1cc(-c2ccc(C(F)(F)F)cc2)nn1-c1c(O)c(OC)nn(C)c1=O [Compound 66]
0 (no)

Is the recorded value of Plant response rating, Ducksalad equal to or greater than 40 for this compound? Cc1cc(-c2ccc(Cl)cc2)nn1-c1c(OS(=O)(=O)c2cccc3ccccc23)cnn(C)c1=O [Compound 47]
0 (no)

Is the recorded value of Plant response rating, Ducksalad equal to or greater than 40 for this compound? CCCc1cc(-c2ccc(Cl)cc2)nn1-c1c(O)cnn(C)c1=O [Compound 43]
0 (no)

----------
# Tested on: pigweed (Amaranthus retroflexus)
# Assay Method Text: Test B pre-/postemergence plant response
# Assay type: in vivo
# Condition Set: Postemergence, 62 g ai/ha; scale 0 to 100, 0 no effect, 100 complete control
I'd be grateful if you could share measured Plant response rating, Pigweed for these entries.
The reply should be a number, written without any unit.

Name the reported Plant response rating, Pigweed value associated with the compound CCCc1cc(-c2ccc(Cl)cc2)nn1-c1c(O)cnn(C)c1=O
0

Name the reported Plant response rating, Pigweed value associated with the compound CCc1c(C)c(-c2ccc(Br)cc2)nn1-c1c(O)cnn(C)c1=O
20

Name the reported Plant response rating, Pigweed value associated with the compound CCc1cc(-c2ccc(C(F)(F)F)cc2)nn1-c1c(O)c(OC)nn(C)c1=O
0

Name the reported Plant response rating, Pigweed value associated with the compound CCCC(=O)Oc1cnn(C)c(=O)c1-n1nc(-c2ccc(Cl)cc2)cc1C
0

Name the reported Plant response rating, Pigweed value associated with the compound Cc1cc(-c2ccc(Cl)cc2)nn1-c1c(OC(=O)c2ccccc2Cl)cnn(C)c1=O
0

Cited source: patent US20100267561A1
